Hello, the source for this data is BindingDB's records for doi:10.1021/jm00093a008, in case you need it.

This listing pairs compounds with measured pIC50.
# protocol_text: Concentration inhibiting Clostridium histolyticum collagenase.
Scale: negative log10 of molar concentration, which is what pIC50 denotes.

Below, each entry is followed by its recorded pIC50 result.
{"compound": "COC1C(C)OC(O[C@@H]2c3c(cc4c(c3O)C(=O)c3c(O)cccc3C4=O)C(=O)[C@@](C)(O)[C@H]2OC)C(OC)C1OC (some centres undefined)", "parameter": "pIC50", "reported": 6.17}
{"compound": "COC1C(O[C@@H]2c3c(cc4c(c3O)C(=O)c3c(ccc(N(C)C)c3O)C4=O)C(=O)[C@@](C)(O)[C@H]2OC)OC(C)C(O)C1O (some centres undefined)", "parameter": "pIC50", "reported": 5.70}
{"compound": "CO[C@H]1[C@H](O)c2c(cc3c(c2O)C(=O)c2c(O)cccc2C3=O)C(=O)[C@@]1(C)O", "parameter": "pIC50", "reported": 4.72}

// below: pIC50 requested for another compound
Record COC1C(O[C@@H]2c3c(cc4c(c3O)C(=O)c3c(O)cccc3C4=O)C(=O)[C@@](C)(O)[C@H]2OC)OC(C)C(O)C1O[Si](C)(C)C(C)(C)C (some centres undefined) . Reported pIC50: 4.77

----------
# protocol_text: Concentration inhibiting Clostridium histolyticum collagenase.
parameter: IC50 (nM)
Only the number, expressed in nM, is required.

{"compound": "COC1C(O[C@@H]2c3c(cc4c(c3O)C(=O)c3c(O)cccc3C4=O)C(=O)[C@@](C)(O)[C@H]2OC)OC(C)C(O)C1O (stereo not given in full)", "IC50, nM": 370}
{"compound": "CCOP(=O)(OCC)O[C@]1(C)C(=O)c2cc3c(c(O)c2[C@@H](OC2OC(C)C(O)C(O)C2OC)[C@@H]1OC)C(=O)c1c(O)cccc1C3=O (stereo not given in full)", "IC50, nM": 220}

// below: IC50 requested for another compound
Record COC1C(O[C@@H]2c3c(cc4c(c3O)C(=O)c3c(O)cccc3C4=O)C(=O)[C@](C)(O)[C@H]2OC)OC(C)C(O)C1O (stereo not given in full) . Reported IC50: 3000
